# protocol: AUC (0 to infinity) in Sprague-Dawley rat at 5 mg/kg, iv by HPLC/MS analysis
# Assay type: ADME, organism-based
# Set-up: dose 5 mg/kg, route intravenous, time infinity
# assay-context: in vivo
metric-name: AUC(0-inf)

Entry Cc1c(Oc2cnc(C(=O)N3CC(C)(O)C3)cn2)ccc2c1B(O)OC2 , AUC(0-inf) reported as 21.7 µg·h/mL

* * *

# protocol: Clearance in Sprague-Dawley rat at 5 mg/kg, iv by HPLC/MS analysis
# Format: ADME, organism-based
# assay-context: in vivo
metric-name: clearance (mL/min/kg)
# output: bare number, implied unit mL/min/kg

Entry Cc1c(Oc2cnc(C(=O)N3CC(C)(O)C3)cn2)ccc2c1B(O)OC2 , clearance reported as 3.88

Data credit: ChEMBL document CHEMBL4038305
